# Tested on: dsDNA
# assay.comment: Binding affinity to 6-FAM/TAMRA labeled double stranded DNA (unknown origin) in potassium cacodylate buffer assessed as change in melting temperature at 1 uM at pH 7.4 by FRET-Based DNA melting assay
# Format: nucleic-acid assay
# binarize ΔTm: threshold 2 °C inclusive, high side Fulfilled, low side Not fulfilled

{"smiles.str": "COc1ccc(-c2ccc3c(c2)c2cc(CNc4ccc([N+](=O)[O-])cc4)ccc2n3CCCN(C)C)cc1", "classification": "Fulfilled"}
{"smiles.str": "CCCCNCc1ccc2c(c1)c1cc(-c3ccc(OC)cc3)ccc1n2CCCN(C)C", "classification": "Fulfilled"}
{"smiles.str": "COc1ccc(-c2ccc3c(c2)c2cc(CNC4CC4)ccc2n3CCCN(C)C)cc1", "classification": "Not fulfilled"}

Prompt line: Reported ΔTm at or above 2 °C? COc1ccc(-c2ccc3c(c2)c2cc(CNc4ccc(O)cc4)ccc2n3CCCN(C)C)cc1
Response line: Not fulfilled

Prompt line: Answer whether ΔTm of COc1ccc(-c2ccc3c(c2)c2cc(CNc4nccs4)ccc2n3CCCN(C)C)cc1 is greater than or equal to 2 °C.
Response line: Not fulfilled
